protocol.description: In vivo pharmacokinetics and brain partition study
condition.parameters: rat, brain/plasma; rats, fasted, single 1 mg/kg iv dose, at 1 and 4 hours; read-out: brain/plasma ratio
Experimental: single 1 mg/kg iv dose administered in rats under fasted conditions plasma concentrations determined at 10 time points (2 mins -24 hrs) brain partition ratio determined at 1 and 4 hours
metric: Kp at 4 h

### Prompt Identify measured Kp at 4 h associated with CN1CC[C@]23c4c5ccc(F)c4O[C@H]2[C@@H](O)C=C[C@H]3[C@H]1C5
### Response 2 to 3

* * *

measurement.target: opioid (non-selective) receptor
protocol.description: Receptor binding assay, opioid (non-selective) (antagonist radioligand)
metric: Ki (nM)
Your answer is read as nM, so omit the unit and give the number.

### Prompt Fetch value of Ki on opioid (non-selective) receptor for CN1CC[C@]23c4c5ccc(F)c4O[C@H]2[C@@H](O)C=C[C@H]3[C@H]1C5 [F-morphine] .
### Response 580

* * *

measurement.target: UniProt P34975
Sequence (P34975 whole entry): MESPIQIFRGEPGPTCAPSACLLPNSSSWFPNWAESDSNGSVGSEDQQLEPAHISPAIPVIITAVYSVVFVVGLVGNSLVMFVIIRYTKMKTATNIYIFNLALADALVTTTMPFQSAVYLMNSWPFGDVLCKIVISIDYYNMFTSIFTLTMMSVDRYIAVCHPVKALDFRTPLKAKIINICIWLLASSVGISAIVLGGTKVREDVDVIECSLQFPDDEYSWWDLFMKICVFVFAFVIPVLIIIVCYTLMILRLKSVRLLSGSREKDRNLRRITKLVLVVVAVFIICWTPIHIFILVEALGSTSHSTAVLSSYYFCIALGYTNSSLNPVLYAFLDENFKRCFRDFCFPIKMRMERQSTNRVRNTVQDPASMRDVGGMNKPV
metric: pKi
Scale: negative log10 of molar concentration, which is what pKi denotes.

### Prompt Would you please give the reported pKi of CN1CC[C@]23c4c5ccc(F)c4O[C@H]2[C@@H](O)C=C[C@H]3[C@H]1C5 with UniProt P34975?
### Response 5.25
